Origin of measurements: ChEMBL document CHEMBL3988442

Molecular target: Tyrosyl-tRNA synthetase, putative (Trypanosoma cruzi (strain CL Brener))
Experiment: Trypanosoma cruzi tyrosyl tRNA synthetase (TcYRS) SOP
Format: functional
Set-up: scale not given: direction of the effect not stated beside the values
Details: 30 µM
Returns one of 1 or 0; 1 when Percent Effect is >= 2%.

Known results for molecules:
{"molecule": "Cc1cccc(-n2cc(C(=O)N3CCn4c(C)nnc4C3)nn2)c1", "qualitative_label": 0}
{"molecule": "CCc1ccc(C(=O)N2CCN(CCS(C)(=O)=O)CC2)o1", "qualitative_label": 1}
{"molecule": "Cc1nccn1-c1nccnc1C1CCN(Cc2ccc(F)cc2)CC1", "qualitative_label": 1}
{"molecule": "Cc1ccc(CN2CC(C(=O)N3CCCC3)C3(CCOCC3)C2)s1 (stereo unspecified)", "qualitative_label": 0}
{"molecule": "NC(=O)c1cc(C2CCCN(C(=O)CCc3cscn3)C2)n[nH]1 (stereo unspecified)", "qualitative_label": 1}

Now turn to the next molecule.
Quick check: does O=C(c1cccnc1-n1cccn1)N1CCN(CC2CC2)CC1 have Percent Effect greater than or equal to 2%?
0
